System: CYP1A2
METHOD: in vitro
STUDY_CONDITIONS: human, cryopreserved human hepatocytes (sandwich culture), Mean Fold Induction, CYP1A2 mRNA; Lot# RFM; 50 μM; 48 h
QUANTITY: fold induction at 48 h, 50 µM
Answer with a bare number; do not write a unit.

Requested field: fold induction at 48 h, 50 µM. Item: COc1ccc2[nH]c([S+]([O-])Cc3ncc(C)c(OC)c3C)nc2c1 (stereo not shown) [OME, omeprazole, reference compound]
19
